- Test system: SNB-19 CNS
- Assay procedure: NCI-60 one-dose screen, 48 h (100 = growth as untreated, 0 = no growth, -100 = all killed)
- Run conditions: 10 µM unless noted
- Description: Growth inhibition of the SNB-19 human tumor cell line is measured as a screen for anti-cancer activity. Cells are grown in 96 well plates and exposed to the test compound for 48 hours. Compounds are tested at a single concentration, which is 10^-5 M for most compounds. The reported endpoint is percent growth (GI% or GIPRCNT), where numbers from 0 - 100% represent growth inhibition, and numbers from -100% - 0 represent cell death. For example, a value of 40 represents 60% growth inhibition. […]
The panel holds about 83,000 compounds, 20% with a hit somewhere; the sample as a whole holds those more often.
Simple rule here: growth less than 90% is T, otherwise F.

Compound	Group
Cc1c(N2CCCCC2)[nH]c2ccccc12	F
Cc1nc2ccccc2c(/C=C/c2ccc(Cl)cc2)c1C(=O)/C=C/c1ccccc1	T
O=C(Cn1cc(CSc2nc3ccccc3o2)nn1)Nc1ccc([N+](=O)[O-])cc1	F
O=C(OCC(O)(CO)C(=O)NC12CC3CC(CC(C3)C1)C2)c1ccc(Cl)cc1 (stereo not drawn)	F
CCOc1cc(\C=N/N=C(N)/C(N)=N\N=C/c2ccc(O)c(OCC)c2)ccc1O	F

IN: Say whether its growth is strictly beneath 90%. Entry: CSc1nn2c(-c3cc4cc(Br)ccc4oc3=O)ccnc2c1C#N
OUT: F

IN: Decide: growth of C#CCOc1cccc(Nc2ncnc3c(NC(=O)CCl)cccc23)c1 strictly below 90%?
OUT: T

IN: # check: growth < 90% for C#CC#CC#CC#CC#CC#CC#CC#CC[C@@H]1OC[C@H](COC(=O)O[C@@H](C(=O)O[C@H]2C[C@@]3(O)[C@@H](OC(=O)c4ccccc4)[C@@H]4[C@]5(OC(C)=O)CO[C@@H]5C[C@H](O)[C@@]4(C)C(=O)[C@H](OC(C)=O)C(=C2C)C3(C)C)[C@@H](NC(=O)c2ccccc2)c2ccccc2)O1
OUT: T

IN: Check if growth falls below 90% for CCN(CC)c1ccc(/C=N/NC(=O)c2ccccc2Nc2ccnc(C(F)(F)F)c2)c(O)c1 .
OUT: T

IN: Threshold test, growth < 90%: O=C1OCC2=C1C(c1cccc(F)c1)c1cc3c(cc1N2CCO)CCC3 (stereo not drawn)
OUT: T

IN: Item COc1cc(/C=N/NC(=O)c2ccc3nc(-c4ccc(Cl)cc4)[nH]c3c2)cc(OC)c1OC : growth beneath 90%, strictly?
OUT: T

IN: Quick check: growth of CC1(C)CC[C@]2(CO)CC[C@]3(C)[C@H](CC[C@@H]4[C@@]5(C)CC[C@H](O)C(C)(C)[C@@H]5CC[C@]43C)[C@H]2[C@H]1O under 90%?
OUT: F

IN: Quick check: growth of O=C(/C=C/c1ccc([N+](=O)[O-])cc1)c1cccc(Nc2nc(Nc3ccccc3)nc(Nc3ccccc3)n2)c1 under 90%?
OUT: F

IN: Is 90% strictly greater than the compound's reported growth? compound: O=C(O)CCCN1C(=O)CSC1=S
OUT: F

IN: Input Nc1ncc(-c2ccc3ncnc(N4CCc5cc(F)c(Cl)cc54)c3c2)cn1 ; condition: growth strictly below 90%. Does it hold?
OUT: T

====

- Tested on: SK-MEL-28 melanoma
- Assay procedure: NCI-60 one-dose screen, 48 h
- Run conditions: 10 µM unless noted
- Protocol: Growth inhibition of the SK-MEL-28 human tumor cell line is measured as a screen for anti-cancer activity. Cells are grown in 96 well plates and exposed to the test compound for 48 hours. Compounds are tested at a single concentration, which is 10^-5 M for most compounds. The reported endpoint is percent growth (GI% or GIPRCNT), where numbers from 0 - 100% represent growth inhibition, and numbers from -100% - 0 represent cell death. For example, a value of 40 represents 60% growth inhibition. […]
About 83,000 compounds went through this panel and 20% of them were active in at least one assay; those are over-represented in the sample as a whole. Calls of active or inactive are those of the source. The calls were made as follows: active = growth percent below 10; inactive = the rest.
Thanks in advance; please answer with one of these: active, inactive

> print(dat)
                                    compound     group
 1  COC(CCP(=O)(c1ccccc1)c1ccccc1)(C(=O)c1ccccc1)c1ccccc1 (centres undefined)  inactive
 2                       O=C(O)COc1ccc(F)cc1  inactive
 3        Oc1c(Cl)cc(Cl)c2ccc(CN3CCNCC3)nc12  inactive
 4   CN(CCNc1ccc(C(=N)N)cc1)c1ccc(C(=N)N)cc1  inactive
 5  COc1cc2c(c(OC)c1OC)CCC(c1cccc(C(=O)Nc3ccccc3Br)c1)O2 (centres undefined)  inactive
 6                CC(=O)/C(Br)=C/c1ccc(Br)o1  inactive
 7          Cc1cccc(CN(Nc2ccccc2)c2ccccc2)n1  inactive
 8  COc1ccc(Nc2nc(Nc3cc(C)[nH]n3)c3cc(OC)c(OC)cc3n2)cc1    active
 9  Cc1cc2c(c(C)n1)CN(C(=O)Nc1nc(-c3cncs3)ccc1N)C2  inactive
10  N=C(N)c1ccc(-c2ccc(-c3ccc(Cl)cc3Cl)s2)nc1  inactive

IN: What outcome does the record of this test show for COc1cc2c(c(OC)c1OC)CCC(c1cccc(C(=O)Nc3ccc([N+](=O)[O-])cc3)c1)O2 (centres undefined) ?
OUT: inactive

IN: Just curious, what result did C=C(C)[C@@H]1CC[C@]2(COCCCNCCCN)CC[C@]3(C)[C@H](CC[C@@H]4[C@@]5(C)CC[C@H](OCCCN)C(C)(C)[C@@H]5CC[C@]43C)[C@@H]12 get here?
OUT: inactive

IN: Hi, do you know how Cc1ccc(S(=O)(=O)c2nc(-c3ccccc3)oc2S(C)=O)cc1 (centres undefined) came out in this test?
OUT: active

IN: Outcome? COc1cc2ncnc(Nc3ccc(S(=O)(=O)Nc4cc(C)on4)cc3)c2cc1OCCCN1CCOCC1
OUT: inactive

IN: What did the test return for CCOC(=O)c1c(C)c2c(n1Cc1ccccc1)CSc1cc(C#N)c(=O)[nH]c1-2 ?
OUT: inactive

IN: Could you check what this test reported for O=C1NC(=O)C(=Cc2cc(-c3ccc(Cl)cc3)n(-c3ccccc3)n2)C(=O)N1 ?
OUT: inactive

IN: Any idea what this test logged for Nc1nc(N)c2c(n1)NC(c1cccc(Nc3ccnc4cc(C(F)(F)F)ccc34)c1)CC(c1ccc(Cl)cc1)=N2 (centres undefined) ?
OUT: inactive

IN: Just curious, what result did CCOc1ccc(-c2cc(C3(S(=O)(=O)c4ccc(C)cc4)CC=CC3)on2)cc1 get here?
OUT: inactive

IN: I'd appreciate the recorded outcome for COc1ccc(S(=O)(=O)N(C)c2oc(-c3ccc(Cl)cc3)nc2C#N)cc1 from this test.
OUT: inactive

IN: Name the outcome recorded for COc1cccc2cc(N(C)c3nc(C)nc4c3CCC4)ccc12 in the assay.
OUT: inactive

IN: Record request — test call for O=C1C2C(c3cccs3)C=C(c3ccc(Cl)cc3)N2C(=S)N1c1ccccc1 (centres undefined)
OUT: inactive

IN: Can you look up the reported call for O=C(Oc1ccccc1)c1cc(O)c(O)c(O)c1 for me?
OUT: inactive

IN: In this assay, the call recorded for CC/C(=C(/c1ccc(Cl)cc1)c1ccc(OCCN2CCCCCC2)cc1)c1ccccc1 was what?
OUT: inactive

IN: Field: outcome | Entry: COc1ccc(-c2nc(SCCC(C)C)nc(N/N=C(/C)c3ccc(N)cc3)c2C#N)cc1
OUT: inactive

IN: Outcome? COc1ccc(S(=O)(=O)NC2c3ccccc3CC2O)cc1OC (centres undefined)
OUT: inactive

IN: Test call for this compound, please: CCOC(=O)c1cnc2sc(-c3ccc(OC)cc3)nc2c1Cl
OUT: inactive

====

- System: 786-0 renal
- Assay procedure: NCI-60 one-dose screen, 48 h
- Run conditions: 10 µM unless noted
This is part of a sample that, as a whole, favours compounds with a hit. Of some 83,000 tested, about 20% had one in any assay. Activity calls are given as the source filed them. How the source made its calls: active means growth percent below 10; inactive means the rest.
Can you answer with just one of these options? yes (1) = active, no (0) = inactive

IN: Please indicate how the test categorized CC(C)(C)CC(C)(C)Nc1c(-c2c(O)c3ccccc3oc2=O)nc2sccn12 .
OUT: no (0)

IN: For this compound, state the assay outcome: CCN(CC)CCN1C(=O)c2c(c(C)c3c(oc4cc(OC)ccc43)c2C)C1=O
OUT: yes (1)

IN: Returns: the outcome recorded for O=C(O)c1nn(-c2ccc(Cl)cc2)nc1N1CCCC1 in this assay.
OUT: no (0)

IN: Entry C#Cc1cccc(Nc2nc(Cl)nc3cc(NC(=O)CCl)ccc23)c1 : call = ?
OUT: yes (1)

IN: Give the logged outcome of this assay for the following compound: O=C1Nc2ccccc2/C1=C/c1cccn1CCCCCCn1c2ccccc2c(=O)c2ccccc21
OUT: no (0)
